Test: cells
Type: functional
The source made the active and inactive calls. No rule for the calls is given here.
parameter: IC50

| compound | IC50 |
| --- | --- |
| COC(=O)CCC(=O)Nc1sc(Cc2ccccc2)c(C)c1C(N)=O | 49 µM (active) |
| COc1ccc2cc(C(=O)C3CCCN(Cc4ccccn4)C3)ccc2c1 (stereo unspecified) | 5.03 µM (active) |

Q: Need IC50 of O=C(c1ccccc1)C(CN1CCCC1)c1ccccc1 (stereo unspecified) , thanks.
A: 8.41 µM (active)

Q: Record: O=C(Nc1ccc(Cc2ccncc2)cc1)c1ccc([N+](=O)[O-])o1
A: 1.3 µM (active)

Q: Record: COc1ccc(-c2nnn(CC(=O)OC3CCCCC3)n2)cc1OC
A: 11.6 µM (active)

Q: Record: Cc1ccc(-n2c(C)cc(C3=NN=C(NC4CC4)SC3)c2C)cc1C
A: 39 µM (active)
